Where a name gives a salt, the structure may show the parent alone.
quantityKind: melting point

Please give the measured melting point for this compound: `COc1cc2[nH]c(N(C)Cc3cccc(C4=NCCN4CCO)c3)nc(=O)c2c(C)c1OC`
253 to 254.9 °C

Which measured melting point value corresponds to `COc1cc2[nH]c(N(C)Cc3cccc(Oc4ncccn4)c3)nc(=O)c2c(OC)c1OC` ?
191 to 192.9 °C

Can you look up the measured melting point of COCCOc1cccc(CN(C)c2nc(=O)c3c(C)c(OC)c(OC)cc3[nH]2)c1 [Example F-10] for me?
144.8 to 145.9 °C

What does the data say about its melting point? Entry: COc1cc2[nH]c(N(C)Cc3ccc(OCC(CO)CO)cc3)nc(=O)c2c(C)c1OC (as salt: HCl)
197.5 to 199 °C

Which melting point value belongs to `COc1cc2[nH]c(N(C)Cc3cccc(Nc4ccnc(Cl)n4)c3)nc(=O)c2c(OC)c1OC` ?
205.9 to 210.1 °C

Any idea what its melting point is? The compound is `COc1cc2[nH]c(N(C)Cc3cccc(Nc4cc(C)nc(Cl)n4)c3)nc(=O)c2c(OC)c1OC`
185.5 to 187.1 °C

Answer for every listed entry: what is its melting point? The entries follow.
1. COc1cc2[nH]c(N(C)Cc3ccc(OCCO)cc3)nc(=O)c2c(C)c1OC
2. COc1cc2[nH]c(N(C)Cc3cccc(N4C=NC(C)(C)C4)c3)nc(=O)c2cc1OC [Example A-12]
3. CNCCOc1ccc(CN(C)c2nc(=O)c3c(C)c(OC)c(OC)cc3[nH]2)cc1OC
4. COc1cc2[nH]c(N(C)Cc3cccc(CN4CCOCC4)c3)nc(=O)c2c(OC)c1OC
5. COc1cc2[nH]c(N(C)Cc3cccc(CN(C)CCO)c3)nc(=O)c2c(C)c1OC

1. 198.5 to 199.5 °C
2. 240 to 244 °C
3. 168.9 to 169.8 °C
4. 160 to 162.1 °C
5. 123.8 to 125.6 °C

For each listed entry, give its melting point.
1. COC(=O)Nc1cccc(CN(C)c2nc(=O)c3c(OC)c(OC)c(OC)cc3[nH]2)c1
2. COCCCOc1cccc(CN(C)c2nc(=O)c3c(C)c(OC)c(OC)cc3[nH]2)c1
3. COc1cc2[nH]c(N(C)Cc3cccc(NS(=O)(=O)N(C)C)c3)nc(=O)c2c(OC)c1OC
4. COc1cc2[nH]c(N(C)Cc3ccc(OCCCN(C)C)cc3)nc(=O)c2c(OC)c1OC
5. CNCCc1ccc(CN(C)c2nc(=O)c3c(C)c(OC)c(OC)cc3[nH]2)cc1

1. 230.9 to 232.1 °C
2. 150.1 to 152 °C
3. 176.5 to 179.7 °C
4. 108 to 111 °C
5. 154.6 to 159 °C

* * *

Counter-ions that a name gives are not always drawn.
Consider the following compounds; for each one, report its melting point.

Dear colleague, I am looking for the recorded melting point of the following compound: COCC(=O)N(C)Cc1cccc(CN(C)c2nc(=O)c3c(C)c(OC)c(OC)cc3[nH]2)c1 [Example 119]
150 to 151.2 °C

Take each entry in turn and give its melting point.
1. COc1cc2[nH]c(N(C)Cc3cccc(OCC(O)CO)c3)nc(=O)c2c(C)c1OC (stereo not shown) (as salt: HCl) [Example 7]
2. COc1cc2[nH]c(N(C)Cc3cccc(/N=C(\C)N(C)C)c3)nc(=O)c2c(C#N)c1OC [Example 53]
3. CCN(C)CCc1ccc(CN(C)c2nc(=O)c3c(C)c(OC)c(OC)cc3[nH]2)cc1 [Example 28]

["220 to 224 °C", "222.1 to 226.9 °C", "172.4 to 173.2 °C"]

* * *

Hi there, I'd appreciate the recorded melting point for every entry that follows.

Here are 3 compounds together with their reported answers.
Which melting point is reported for this compound? COc1cc2[nH]c(N(C)Cc3cccc(CN(C)C)c3)nc(=O)c2c(C)c1OC [Example 56]
174.9 to 176 °C

Quick one: melting point for COc1cc2[nH]c(N(C)Cc3cccc(N4CCNC4=O)c3)nc(=O)c2c(C)c1OC [Example 76] ?
265 to 266 °C

Sample COCCOC(=O)N(C)Cc1ccc(CN(C)c2nc(=O)c3c(C)c(OC)c(OC)cc3[nH]2)cc1 [Example 9] — what was its melting point?
159.4 to 160.4 °C

Now look at this entry.
Can you share its melting point? I mean this compound: COc1cc2[nH]c(N(C)Cc3cccc(S(=O)(=O)N(C)C)c3)nc(=O)c2c(OC)c1OC [Example 130]
199.9 to 204 °C

* * *

Assign Ki to each entry below.
target: alpha1D adrenoceptor (Homo sapiens, UniProt P25100); construct: expressed in transfected cells; host or cells: CHO-K1; experiment: [3H]prazosin binding (alpha1-adrenoceptor) assay, membranes of transfected CHO-K1 cells; details: transfected CHO-K1 cell membranes, read-out: pKi alpha 1D (converted)
Sequence (P25100 whole entry): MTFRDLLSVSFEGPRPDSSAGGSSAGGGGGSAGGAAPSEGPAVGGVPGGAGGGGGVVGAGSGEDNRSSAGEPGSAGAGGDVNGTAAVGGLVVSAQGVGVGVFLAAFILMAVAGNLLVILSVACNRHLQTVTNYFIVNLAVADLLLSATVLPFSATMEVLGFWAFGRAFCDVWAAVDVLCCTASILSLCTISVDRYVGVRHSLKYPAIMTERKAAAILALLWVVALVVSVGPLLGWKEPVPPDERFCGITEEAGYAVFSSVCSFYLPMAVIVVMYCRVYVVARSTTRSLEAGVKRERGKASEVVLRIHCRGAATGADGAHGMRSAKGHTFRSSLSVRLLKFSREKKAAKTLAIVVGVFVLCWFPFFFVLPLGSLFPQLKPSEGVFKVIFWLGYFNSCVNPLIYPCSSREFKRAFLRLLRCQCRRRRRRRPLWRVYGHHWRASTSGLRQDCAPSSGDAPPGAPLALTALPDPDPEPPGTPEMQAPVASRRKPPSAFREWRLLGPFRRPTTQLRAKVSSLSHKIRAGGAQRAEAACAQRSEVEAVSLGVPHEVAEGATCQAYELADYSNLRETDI
Answers are plain numbers, in nM.

Using the record for COc1cc2[nH]c(N(C)Cc3cccc(CN4CCC(OC)C4)c3)nc(=O)c2c(OC)c1OC (stereo not shown) , report its Ki.
5370

Requested field: Ki. Item: `CCN(C)Cc1ccc(CN(C)c2nc(=O)c3c(OC)c(OC)c(OC)cc3[nH]2)cc1`
550

Fill blank: measured Ki of the compound `COc1cc2[nH]c(N(C)Cc3cccc(C4=NCCO4)c3)nc(=O)c2c(OC)c1OC` is ____.
2630

Tell me the measured Ki of COc1cc2[nH]c(N(C)Cc3ccc(OCC(O)CO)cc3)nc(=O)c2c(C)c1OC (stereo not shown) , please.
794

Any idea what Ki was measured for `COc1cc2[nH]c(N(C)Cc3ccc4c(c3)CN(C)C4)nc(=O)c2c(C)c1OC` ?
2630

Record Ki for all entries; do not skip any.
1. COc1cc2[nH]c(N(C)Cc3cccc(C(C)N(C)C)c3)nc(=O)c2c(OC)c1OC (stereo not shown)
2. COc1cc2[nH]c(NCc3cccc(N=C(C)N(C)C)c3)nc(=O)c2c(C)c1OC

[141, 69.2]

* * *

Kindly state melting point for each of the entries shown.
Where a name gives a salt, the structure may show the parent alone.

Observe how each entry below is paired with its result.
Request the reported melting point associated with COc1cc2[nH]c(N(C)Cc3cccc(N4CCN=C4C)c3)nc(=O)c2c(C)c1OC [Example H-6]
177 to 180 °C

Data request, read-out melting point, for COc1cc2[nH]c(N(C)Cc3cccc(N4CCC(O)C4=O)c3)nc(=O)c2c(OC)c1OC (stereo not drawn) (as salt: HCl) [Example 22]
172.9 to 175.9 °C

What measured melting point goes with COc1cc2[nH]c(N(C)Cc3cccc(N4C(=O)CN(C)C4=O)c3)nc(=O)c2c(C)c1OC [Example 60] ?
209.3 to 210.8 °C

Bench note: what melting point did COc1cc2[nH]c(N(C)Cc3cccc(CNC4CC4)c3)nc(=O)c2c(C)c1OC [Example 66] show?
144.5 to 147.6 °C

Look up melting point for this compound: COCCCN(C)c1cccc(CN(C)c2nc(=O)c3c(OC)c(OC)c(OC)cc3[nH]2)c1 (as salt: HCl) [Example 189]
166.7 to 168.1 °C

Dear colleague, could you please provide melting point for the compounds listed below?
1. COc1cc2[nH]c(N(C)Cc3cccc(C(C)N(C)S(C)(=O)=O)c3)nc(=O)c2c(OC)c1OC (stereo not drawn) [Example 292]
2. COc1cc2[nH]c(N(C)Cc3cccc(N4CCCS4(=O)=O)c3)nc(=O)c2c(OC)c1OC [Example 253]
3. COc1cc2[nH]c(N(C)Cc3cccc(CN4CCC(OC)C4)c3)nc(=O)c2c(C)c1OC (stereo not drawn) [Example 37]
4. COCCN(C)Cc1cccc(CN(C)c2nc(=O)c3c(OC)c(OC)c(OC)cc3[nH]2)c1 (as salt: hydrochloride) [Example 117]

1: 171 to 172.4 °C; 2: 181.1 to 183.5 °C; 3: 151.2 to 152.9 °C; 4: 162.9 to 164.5 °C

Quick request: melting point for each listed item, please.
1. COc1cc2[nH]c(N(C)Cc3cccc(N4CCC(C)C4=O)c3)nc(=O)c2c(C)c1OC (stereo not drawn) [Example 256]
2. COCCN1CCN(c2cccc(CN(C)c3nc(=O)c4c(OC)c(OC)c(OC)cc4[nH]3)c2)C1=O [Example 266]

1. 210.8 to 211.6 °C
2. 199.5 to 202.1 °C

* * *

Structures can show the parent of a compound that is named as a salt.
Give measured melting point for each item. Keep answers brief.

Given the entry C/N=C(/C)N(C)c1cccc(CN(C)c2nc(=O)c3c(C)c(OC)c(OC)cc3[nH]2)c1 [Example 194] , report its measured melting point.
181.2 to 186.6 °C

Item COc1cc2[nH]c(N(C)Cc3ccc(CN)cc3)nc(=O)c2c(C)c1OC (as salt: HCl) [Example 42] has what recorded melting point?
248.2 to 249.4 °C

Can you share its melting point? I mean this molecule: COc1cc2[nH]c(N(C)C(C)c3cccc(NCCNC(C)=O)c3)nc(=O)c2c(C)c1OC (stereo not shown) [Example 191]
220.6 to 222.4 °C

Please look up its melting point: COc1cc2[nH]c(N(C)Cc3cccc(-n4ccc(C)n4)c3)nc(=O)c2c(C)c1OC [Example 233]
220 to 223.5 °C

Record melting point for all entries; do not skip any.
1. CNCc1cccc(CN(C)c2nc3cc(OC)c(OC)c(C)c3c(=O)[nH]2)c1 [Example C-1]
2. COc1cc2[nH]c(N(C)Cc3cccc(/N=C(\C4CCC4)N(C)C)c3)nc(=O)c2c(OC)c1OC [Example 203]

1. 179 to 181.3 °C
2. 164.2 to 165.7 °C

For each of the items listed, what is its melting point?
1. COc1cc2[nH]c(N(C)Cc3ccc4c(c3)CN(C)C4)nc(=O)c2c(C)c1OC [Example 38]
2. COc1cc2[nH]c(N(C)Cc3cccc(/N=C/N(C)C)c3)nc(=O)c2cc1OC (as salt: HCl) [Example 86]
3. COc1cc2[nH]c(N(C)Cc3ccc(OCC(O)CO)cc3)nc(=O)c2c(C)c1OC (stereo not shown) [Example 14]

1: 214.9 to 224.8 °C; 2: 242 to 245 °C; 3: 199.7 to 201.9 °C

List melting point for every entry below, keeping the order given.
1. COc1cc2[nH]c(N(C)Cc3cccc(Nc4ncccn4)c3)nc(=O)c2c(OC)c1OC [Example 213]
2. COc1cc2[nH]c(N(C)Cc3cccc(N4C[C@@H](O)CC4=O)c3)nc(=O)c2c(OC)c1OC [Example 24]
3. COCCN(C)c1cccc(CN(C)c2nc(=O)c3c(OC)c(OC)c(OC)cc3[nH]2)c1 [Example G-20]
4. COc1cc2[nH]c(N(C)Cc3cccc(Oc4ncccn4)c3)nc(=O)c2c(C)c1OC (as salt: salt) [Example F-3]

["190.3 to 191.1 °C", "207.5 to 209.9 °C", "179.3 to 181.2 °C", "224 to 227.8 °C"]
